Below: a set of entries, each annotated with reported Kd.
target: recombinant His-tagged human OX40 extracellular domain (Homo sapiens, UniProt P43489)
Sequence (P43489 29-214): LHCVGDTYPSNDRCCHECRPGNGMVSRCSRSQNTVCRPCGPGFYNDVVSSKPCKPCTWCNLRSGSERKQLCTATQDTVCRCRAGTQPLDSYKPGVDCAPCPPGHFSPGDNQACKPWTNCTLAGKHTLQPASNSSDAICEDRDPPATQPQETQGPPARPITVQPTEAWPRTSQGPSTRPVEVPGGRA
Express your answer as a number followed by its unit.

BINDER | MEASUREMENT TYPE | MEASURED VALUE
tOX40.15 (S-S-Sp-6) (antibody, V domains shown) VH: QVQLVESGGGVVQPGRSLRLSCAASGFTFSSYGMHWVRQAPGKGLEWVAIIWYDGSNKYYADSVKGRFTISRDNSKNTLYLQMNSLRAEDTAVYFCAREGDYYGSGSYYPLDYYYYGMDVWGQGTTVTVSS VL: DIQLTQSPSFLSASVGDRVTITCRASQGISSYLAWYQQKPGKAPKLLIYAASTLQSGVPSRFSGSGSGTEFTLTISSLQPEDFATYYCQQLNSFPRTFGQGTKVEIK | Kd | 6 nM

Next binder, Kd to be filled in.
Q: Using the record for tOX40.22 (S-CL-LN-5) (antibody, V domains shown) VH: QVQLVESGGGVVQPGRSLRLSCAASGFTFSNYGMHWVRQAPGKGLEWVAVIWLDGSNKYYADSVKGRFTISRDNSKNTLYLQMNSLRAEDTAVYYCARAAAGSLYYGMDVWGQGTTVTVSS VL: DIQMTQSPSSLSASVGDRVTITCRASQGINTWLAWYQQKPEKAPKSLIYAASSLQSGVPSRFSGSGSGTDFTLTISSLQPEDFATYYCQQYYSYPWTFGQGTKVEIR , state its measured Kd.
A: 7.3 nM
